tested on: trypsin; test: Insulin digestion in immobilized enzyme reactor, buffer screening (Table 7); format: biochemical, porcine; conditions: 10%; IMER, 70°C, 60 s
We begin with a simple list: items and their reported Digested.
API doc: respond with a numeric literal and nothing else, no unit.

Some compounds with recorded Digested:
>>> readoutnumber("CC#N")
719966
>>> readoutnumber("CC(C)O")
208098
>>> readoutnumber("OCC(O)CO")
1779261
>>> readoutnumber("OCC(F)(F)F")
95904
>>> readoutnumber("NC=O [Formamide]")
745680

Lab note: trypsin assay, enter Digested for C[S+](C)[O-] [DMSO, dimethylsulfoxide] here
1483343

Lab note: trypsin assay, enter Digested for CO here
1001203

----------
test system: trypsin; test: Insulin digestion in immobilized enzyme reactor, buffer screening (Table 7); format: biochemical, porcine; conditions: 10%; IMER, 70°C, 60 s
Param label: returns MET when Peptide < 300000, returns NOT MET otherwise, including exact equality.

Reference set, count: 3
>>> answerlabel("C[S+](C)[O-] [DMSO, dimethylsulfoxide]")
"NOT MET"
>>> answerlabel("CO")
"NOT MET"
>>> answerlabel("OCC(F)(F)F")
"MET"

Dear reviewer, please state whether CC(C)O has Peptide strictly beneath 300000.
MET

Dear reviewer, please state whether OCC(O)CO has Peptide strictly beneath 300000.
NOT MET

Dear reviewer, please state whether CC#N has Peptide strictly beneath 300000.
NOT MET

----------
We begin with a simple list: items and their reported Digested.
system: trypsin; test: Insulin digestion in immobilized enzyme reactor, buffer screening (Table 7); type: biochemical, porcine; settings: 0.5M; IMER, 70°C, 60 s
Where a name gives a salt, the structure may show the parent alone.
API doc: respond with a numeric literal and nothing else, no unit.

Look up and report measured Digested for this entry: N=C(N)N [Gdn HC1, guanidine hydrochloride]
723258

Look up and report measured Digested for this entry: NC(CO)(CO)CO
2205308

----------
system: porcine trypsin; construct: purchased; assay: Insulin digestion by trypsin in solution, buffer screening (Table 9); format: biochemical; conditions: 0.5M, 37°C, 18 h
Counter-ions that a name gives are not always drawn.
We begin with a simple list: items and their reported Undigested.
API doc: respond with a numeric literal and nothing else, no unit.

Some compounds with recorded Undigested:
>>> readoutnumber("NC(CO)(CO)CO")
780101
>>> readoutnumber("NC(N)=O")
3763696
>>> readoutnumber("[Ca+2].[Cl-].[Cl-] [CaCl2, calcium chloride]")
856015
>>> readoutnumber("N=C(N)N [Gdn HC1, guanidine hydrochloride]")
5487176

# next compound below
Lab note: porcine trypsin assay, enter Undigested for [Cl-].[Na+] here
4517343

----------
system: trypsin; experiment: Insulin digestion in immobilized enzyme reactor, buffer screening (Table 7); format: biochemical, porcine; conditions: 0.5M; IMER, 70°C, 60 s
Where a name gives a salt, the structure may show the parent alone.
parameterMeasured: Peptide
API doc: respond with a numeric literal and nothing else, no unit.

Some molecules with recorded Peptide:
>>> readoutnumber("[Ca+2].[Cl-].[Cl-] [CaCl2, calcium chloride]")
1290650
>>> readoutnumber("[Cl-].[Na+]")
862093

Look up and report measured Peptide for this entry: N=C(N)N [Gdn HC1, guanidine hydrochloride]
309390

Look up and report measured Peptide for this entry: NC(N)=O
715848

Look up and report measured Peptide for this entry: NC(CO)(CO)CO
879474

----------
tested on: trypsin; assay: Insulin digestion in immobilized enzyme reactor, buffer screening (Table 7); type: biochemical, porcine; conditions: 20%; IMER, 70°C, 60 s
parameterMeasured: Peptide
API doc: respond with a numeric literal and nothing else, no unit.

>>> readoutnumber("OCC(F)(F)F")
9756
>>> readoutnumber("CO")
213935
>>> readoutnumber("C[S+](C)[O-] [DMSO, dimethylsulfoxide]")
296540
>>> readoutnumber("CC#N")
86754
>>> readoutnumber("CC(C)O")
55155
>>> readoutnumber("OCC(O)CO")
445736

Lab note: trypsin assay, enter Peptide for NC=O [Formamide] here
82549

----------
We begin with a simple list: items and their reported Digested.
test system: trypsin; assay: Insulin digestion in immobilized enzyme reactor, buffer screening (Table 7); assay type: biochemical, porcine; details: 15%; IMER, 70°C, 60 s

>>> result("CC(C)O")
126129
>>> result("CO")
675569
>>> result("OCC(F)(F)F")
40955
>>> result("NC=O [Formamide]")
375288
>>> result("C[S+](C)[O-] [DMSO, dimethylsulfoxide]")
1058609

Look up and report measured Digested for this entry: CC#N
292205

----------
system: trypsin; experiment: Insulin digestion in immobilized enzyme reactor, buffer screening (Table 7); type: biochemical, porcine; conditions: 20%; IMER, 70°C, 60 s
parameterMeasured: Digested
API doc: respond with a numeric literal and nothing else, no unit.

Some compounds with recorded Digested:
>>> readoutnumber("CC#N [ACN, acetonitrile]")
194140
>>> readoutnumber("OCC(F)(F)F [TFE]")
26014
>>> readoutnumber("OCC(O)CO [Glycerol]")
1167862
>>> readoutnumber("NC=O [Formamide]")
200621
>>> readoutnumber("CC(C)O [IPA, isopropyl alcohol]")
135325
>>> readoutnumber("C[S+](C)[O-] [DMSO, dimethylsulfoxide]")
722730

Look up and report measured Digested for this entry: CO [MeOH, methanol]
518131

----------
tested on: trypsin; test: Insulin digestion in immobilized enzyme reactor, buffer screening (Table 7); format: biochemical, porcine; details: 5%; IMER, 70°C, 60 s
We begin with a simple list: items and their reported Digested.
API doc: respond with a numeric literal and nothing else, no unit.

Lab note: trypsin assay, enter Digested for C[S+](C)[O-] [DMSO, dimethylsulfoxide] here
1804007

Lab note: trypsin assay, enter Digested for CC(C)O [IPA, isopropyl alcohol] here
696091

----------
system: trypsin; test: Insulin digestion in immobilized enzyme reactor, buffer screening (Table 7); assay type: biochemical, porcine; details: 5%; IMER, 70°C, 60 s
parameterMeasured: Undigested
API doc: respond with a numeric literal and nothing else, no unit.

Some compounds with recorded Undigested:
>>> readoutnumber("OCC(O)CO [Glycerol]")
2217803
>>> readoutnumber("C[S+](C)[O-] [DMSO, dimethylsulfoxide]")
2280353
>>> readoutnumber("OCC(F)(F)F [TFE]")
4502764
>>> readoutnumber("CC(C)O [IPA, isopropyl alcohol]")
4427643
>>> readoutnumber("NC=O [Formamide]")
3061491

Lab note: trypsin assay, enter Undigested for CO [MeOH, methanol] here
2902781

Lab note: trypsin assay, enter Undigested for CC#N [ACN, acetonitrile] here
3327305

----------
system: trypsin; assay: Insulin digestion in immobilized enzyme reactor, buffer screening (Table 7); format: biochemical, porcine; details: 15%; IMER, 70°C, 60 s
parameterMeasured: Peptide
API doc: respond with a numeric literal and nothing else, no unit.

>>> readoutnumber("CC(C)O")
52332
>>> readoutnumber("CO")
277958
>>> readoutnumber("CC#N")
116402
>>> readoutnumber("OCC(F)(F)F")
18047
>>> readoutnumber("NC=O [Formamide]")
155245

Look up and report measured Peptide for this entry: C[S+](C)[O-] [DMSO, dimethylsulfoxide]
437967

----------
test system: trypsin; test: Insulin digestion in immobilized enzyme reactor, buffer screening (Table 7); format: biochemical, porcine; details: 1M; IMER, 70°C, 60 s
Where a name gives a salt, the structure may show the parent alone.
We begin with a simple list: items and their reported Peptide.
API doc: respond with a numeric literal and nothing else, no unit.

Some compounds with recorded Peptide:
>>> readoutnumber("[Cl-].[Na+] [NaCl]")
944511
>>> readoutnumber("N=C(N)N [Gdn HC1, guanidine hydrochloride]")
179523
>>> readoutnumber("[Ca+2].[Cl-].[Cl-] [CaCl2, calcium chloride]")
1263872

Look up and report measured Peptide for this entry: NC(CO)(CO)CO [Tris]
745060

Look up and report measured Peptide for this entry: NC(N)=O [Urea]
555954

----------
We begin with a simple list: items and their reported Undigested.
system: trypsin; assay: Insulin digestion in immobilized enzyme reactor, buffer screening (Table 7); assay type: biochemical, porcine; conditions: 15%; IMER, 70°C, 60 s
API doc: respond with a numeric literal and nothing else, no unit.

Some molecules with recorded Undigested:
>>> readoutnumber("NC=O [Formamide]")
4129486
>>> readoutnumber("CC#N")
5326017
>>> readoutnumber("CC(C)O")
5930073
>>> readoutnumber("C[S+](C)[O-] [DMSO, dimethylsulfoxide]")
3394971

Look up and report measured Undigested for this entry: CO
5012221

Look up and report measured Undigested for this entry: OCC(F)(F)F
5055881
